Target: HCV NS5B (Hepatitis C virus genotype 1b)
Construct: fusion protein, of which the carboxyl terminal 21 amino acids were removed to enhance its solubility; His tag (GSHHHHHH); made in house; host or cells: E. coli
Assay: Inhibition of viral RNA-dependent RNA polymerase (RdRp), in vitro biochemical assay
Set-up: species or system HCV genotype 1b virus (BB7)
Details: purified His-tagged NS5B (BB7), carboxyl terminal 21 amino acids removed; read-out: HCV pol-BB7 IC50
Provide the reported IC50 of each item.

Request: What IC50 value was documented for this molecule, CCNc1cc2oc(-c3ccc(F)cc3)c(C(=O)NC)c2cc1OC(C)C [Example 22] ?
Response: ≤ 500 nM

Request: What IC50 value was documented for this molecule, CNC(=O)c1c(-c2ccccc2)oc2ccc(OC(C)C)cc12 [Example 59] ?
Response: 500 to 5000 nM

Request: What IC50 value was documented for this molecule, CNC(=O)c1c(-c2ccc(F)cc2)oc2cc(-c3noc(C)n3)c(OC)cc12 [Example 50] ?
Response: ≤ 500 nM

Request: What IC50 value was documented for this molecule, CNC(=O)c1c(-c2ccccc2)oc2ccc(C(C)(C)C)cc12 [Example 74] ?
Response: ≤ 500 nM

Request: What IC50 value was documented for this molecule, CNC(=O)c1c(-c2ccc(OC)cc2)oc2ccc(OC)cc12 [Example 54] ?
Response: 500 to 5000 nM

Request: What IC50 value was documented for this molecule, CNC(=O)c1c(-c2ccc(F)cc2)oc2cc(-c3c(C)noc3C)c(OCCCO)cc12 [Example 51] ?
Response: ≤ 500 nM

Request: What IC50 value was documented for this molecule, CNC(=O)c1c(-c2ccc(F)cc2)oc2cc(N(C)C)c(OC(C)C)cc12 [Example 20] ?
Response: ≤ 500 nM

Request: What IC50 value was documented for this molecule, CNC(=O)c1c(-c2ccc(F)cc2)oc2cc(N(C)S(C)(=O)=O)c(OC)cc12 [Example 29] ?
Response: ≤ 500 nM

Request: What IC50 value was documented for this molecule, CNC(=O)c1c(-c2ccc(F)cc2)oc2cc(N3CCOCC3)c(OCc3cscn3)cc12 [Example 35] ?
Response: ≤ 500 nM

Request: What IC50 value was documented for this molecule, CNC(=O)c1c(-c2ccccc2)oc2c(C)cc(OC)cc12 [Example 63] ?
Response: 500 to 5000 nM

Request: What IC50 value was documented for this molecule, CNC(=O)c1c(-c2ccc(CNC(C)=O)cc2)oc2ccc(OC(C)C)cc12 [Example 4] ?
Response: 500 to 5000 nM

Request: What IC50 value was documented for this molecule, CNC(=O)c1c(-c2ccccc2)oc2ccc(OCC(F)(F)F)cc12 [Example 11] ?
Response: > 30000 nM

Request: What IC50 value was documented for this molecule, CNC(=O)c1c(-c2ccc(F)cc2)oc2cc(N)c(OC(C)C)cc12 [Example 16] ?
Response: ≤ 500 nM

Request: What IC50 value was documented for this molecule, CNC(=O)c1c(-c2ccc(Br)cc2)oc2ccc(OC)cc12 [Example 70] ?
Response: ≤ 500 nM

Request: What IC50 value was documented for this molecule, CNC(=O)c1c(-c2ccc(F)cc2)oc2cc(NC(C)=O)c(OC)cc12 [Example 18] ?
Response: ≤ 500 nM

Request: What IC50 value was documented for this molecule, CNC(=O)c1c(-c2ccc(F)cc2)oc2cc(-c3cc(CO)on3)c(OC(C)C)cc12 [Example 37] ?
Response: ≤ 500 nM

Request: What IC50 value was documented for this molecule, CCN(CC)c1cc2oc(-c3ccc(F)cc3)c(C(=O)NC)c2cc1OC(C)C [Example 23] ?
Response: ≤ 500 nM

Request: What IC50 value was documented for this molecule, CNC(=O)c1c(-c2ccc(F)cc2)oc2cc(N3CCOCC3)c(OCc3ccc(OC)cc3)cc12 [Example 30] ?
Response: ≤ 500 nM

Request: What IC50 value was documented for this molecule, CNC(=O)c1c(-c2ccccc2)oc2cc(C)c(OC)cc12 [Example 14] ?
Response: ≤ 500 nM

Request: What IC50 value was documented for this molecule, CNC(=O)c1c(-c2ccccc2F)oc2ccc(OC)cc12 [Example 58] ?
Response: 500 to 5000 nM

Request: What IC50 value was documented for this molecule, CCc1cc2c(C(=O)NC)c(-c3ccc(F)cc3)oc2cc1N(CCO)S(C)(=O)=O [Example 46] ?
Response: ≤ 500 nM

Request: What IC50 value was documented for this molecule, CNC(=O)c1c(-c2ccc(Cl)c(F)c2)oc2ccc(OC)cc12 [Example 77] ?
Response: ≤ 500 nM

Request: What IC50 value was documented for this molecule, CNC(=O)c1c(-c2ccc(F)cc2)oc2cc(N3CCCC3)c(OC(C)C)cc12 [Example 6] ?
Response: ≤ 500 nM

Request: What IC50 value was documented for this molecule, CNC(=O)c1c(-c2ccc(F)cc2)oc2ccc(F)cc12 [Example 82] ?
Response: 500 to 5000 nM

Request: What IC50 value was documented for this molecule, CNC(=O)c1c(-c2ccc(F)cc2)oc2cc(N(C)S(C)(=O)=O)c(OCc3ccc(C(=O)O)c(O)c3)cc12 [Example 39] ?
Response: ≤ 500 nM

Request: What IC50 value was documented for this molecule, CCCOc1ccc2oc(-c3ccccc3)c(C(=O)NC)c2c1 [Example 61] ?
Response: 500 to 5000 nM

Request: What IC50 value was documented for this molecule, CNC(=O)c1c(-c2ccc(F)cc2)oc2cc(N(C)S(C)(=O)=O)c(OCCN3CCOCC3)cc12 [Example 52] ?
Response: ≤ 500 nM

Request: What IC50 value was documented for this molecule, CCOc1cc2c(C(=O)NC)c(-c3ccc(F)cc3)oc2cc1N(CC)S(C)(=O)=O [Example 32] ?
Response: ≤ 500 nM

Request: What IC50 value was documented for this molecule, CNC(=O)c1c(-c2cc(F)c(F)cc2F)oc2ccc(OC)cc12 [Example 62] ?
Response: 5000 to 30000 nM

Request: What IC50 value was documented for this molecule, CNC(=O)c1c(-c2ccc(F)cc2)oc2cc(N)c(OC)cc12 [Example 17] ?
Response: 500 to 5000 nM

Request: What IC50 value was documented for this molecule, CNC(=O)c1c(-c2ccc(F)c(C)c2)oc2ccc(OC)cc12 [Example 71] ?
Response: ≤ 500 nM

Request: What IC50 value was documented for this molecule, CNC(=O)c1c(-c2ccc(F)cc2)oc2cc(N(CCO)S(C)(=O)=O)c(OC)cc12 [Example 42] ?
Response: ≤ 500 nM

Request: What IC50 value was documented for this molecule, CNC(=O)c1c(-c2ccccc2)oc2ccc(OC(F)(F)F)cc12 [Example 2] ?
Response: 500 to 5000 nM

Request: What IC50 value was documented for this molecule, CNC(=O)c1c(-c2ccc(F)cc2)oc2cc(C(C)(C)O)c(OC)cc12 [Example 49] ?
Response: ≤ 500 nM

Request: What IC50 value was documented for this molecule, CNC(=O)c1c(-c2ccccc2)oc2cc(OC)ccc12 [Example 67] ?
Response: 500 to 5000 nM

Request: What IC50 value was documented for this molecule, CNC(=O)c1c(-c2ccc(F)c(Cl)c2)oc2ccc(OC)cc12 [Example 76] ?
Response: 500 to 5000 nM

Request: What IC50 value was documented for this molecule, CNC(=O)c1c(-c2ccc(C)cc2)oc2ccc(Cl)cc12 [Example 75] ?
Response: ≤ 500 nM

Origin of values: patent US7265152B2
